# Test system: HCC1143 (Breast Carcinoma)
# PROTOCOL_TEXT: combination Emax (second highest fraction inhibited in the dose matrix, 72 h); higher = more inhibition; extreme values may be limits of the assay
READOUT: combination Emax
Number, no unit, nothing else.

// returns reported combination Emax for input COc1cccc(OCCCN)c1-c1cc(Nc2cnc(C#N)cn2)n[nH]1 [Prexasertib] + CCc1c2c(nc3ccc(O)cc13)-c1cc3c(c(=O)n1C2)COC(=O)[C@]3(O)CC [SN-38] (first compound max 1 µM, 7x7, partner max 0.3 µM) 0.928

// returns reported combination Emax for input COc1cccc(OCCCN)c1-c1cc(Nc2cnc(C#N)cn2)n[nH]1 [Prexasertib] + CN(C)CCCOc1ccc(-c2ccc3ncc4c(c3c2)n(C2CCOCC2)c(=O)n4C)cn1 [AZD0156] (first compound max 1 µM, 7x7, partner max 1 µM) 0.912
